B1: RSPH3 (parent)
chain: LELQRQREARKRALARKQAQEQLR

- Variants of: B1
- ASSAY_COMMENT: protein stability index of a GFP-peptide fusion (GPS, HEK-293T) (PSI 1-6); higher = more stable;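 also: lentivirally expressed fusions sorted by FACS into six bins by GFP to DsRed ratio, PSI derived from sequencing read proportions per bin multiplied by bin number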
- CONDITION_SUMMARY: c terminus: a fixed tail appended
Criterion: protein stability index meeting or surpassing 4. Met: True. Not met: False.

Solved entries (count: 5):
# MUTATION_NOTATION, CLASS_LABEL
data = [
    ("Q6Y", "False"),
    ("A19P", "False"),
    ("R7D", "True"),
    ("R5S", "True"),
    ("R24H", "False"),
]

query: Could you verify whether the entry `R5V` shows protein stability index of no less than 4?
result: True

query: Then `R5E` ?
result: False

query: Then `Q4S` ?
result: True
